Property: viability at 48 h, 100 μM; scope: individual compounds
- assay-details: MTT assay, cytotoxicity against normal HEK293 cells
- Assay type: cell-based, human
- condition-set: human, HEK293 cells
Answer with a number only, understood to be in %.

Recorded results for 5 compounds are shown here.
compound: CC(C)Cc1ccc(C(C)C(=O)NN=Cc2ccc(OCC(=O)NN=Cc3ccc(Br)cc3F)cc2)cc1 (centres unmarked)
result-type: viability at 48 h, 100 μM
quantity-unit: %
reported-measurement: 36.8

compound: COc1cccc(C=NNC(=O)COc2ccc(C=NNC(=O)C(C)c3ccc(CC(C)C)cc3)cc2)c1 (centres unmarked)
result-type: viability at 48 h, 100 μM
quantity-unit: %
reported-measurement: 48.1

compound: COc1ccc(C=NNC(=O)COc2ccc(C=NNC(=O)C(C)c3ccc(CC(C)C)cc3)cc2)c(O)c1 (centres unmarked)
result-type: viability at 48 h, 100 μM
quantity-unit: %
reported-measurement: 21.9

compound: CC(C)Cc1ccc(C(C)C(=O)NN=Cc2ccc(OCC(=O)NN=Cc3ccc(Cl)cc3Cl)cc2)cc1 (centres unmarked)
result-type: viability at 48 h, 100 μM
quantity-unit: %
reported-measurement: 68.3

compound: CC(C)Cc1ccc(C(C)C(=O)NN=Cc2ccc(OCC(=O)NN=Cc3cc(Br)c(O)c(Br)c3)cc2)cc1 (centres unmarked)
result-type: viability at 48 h, 100 μM
quantity-unit: %
reported-measurement: 49.9

Return the recorded viability at 48 h, 100 μM value; entry: COc1ccc(C=NNC(=O)COc2ccc(C=NNC(=O)C(C)c3ccc(CC(C)C)cc3)cc2)cc1O (centres unmarked)
16.9

Please report viability at 48 h, 100 μM for the following compound: CC(C)Cc1ccc(C(C)C(=O)NN=Cc2ccc(OCC(=O)NN=Cc3ccccc3O)cc2)cc1 (centres unmarked)
26.1

Identify viability at 48 h, 100 μM associated with the compound CC(C)Cc1ccc(C(C)C(=O)NN=Cc2ccc(OCC(=O)NN)cc2)cc1 (centres unmarked)
26.3
